Target: HEV helicase (Hepatitis E virus genotype 1, UniProt P33424)
Construct: The HEV helicase (735 bp) was amplified from the HEV (genotype 1; AF444002.1) cDNA clone; made in house; host or cells: E. coli BL21(DE3), pET28a; solubilised from inclusion bodies with NLS
Sequence (P33424 960-1204): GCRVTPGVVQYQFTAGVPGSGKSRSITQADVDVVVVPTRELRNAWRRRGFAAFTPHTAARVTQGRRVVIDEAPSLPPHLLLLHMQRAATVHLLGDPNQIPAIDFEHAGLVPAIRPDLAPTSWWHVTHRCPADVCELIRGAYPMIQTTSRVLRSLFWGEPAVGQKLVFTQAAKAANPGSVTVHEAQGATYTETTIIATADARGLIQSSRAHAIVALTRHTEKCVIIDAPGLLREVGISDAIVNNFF
Experiment: biochemical
Format: biochemical
Description: The HEV helicase (735 bp) was amplified from the HEV (genotype 1; accession no. AF444002.1) cDNA clone pSK-HEV-2[23]^,[25] using the forward and reverse primers sets (5′agcc|atatgggttgccgtgtgacc3′ and 5′gtgc|tcgagttaaaagaagttgttcac3′). Following standard laboratory procedures, the amplified gene was cloned in the pET28a vector between NdeI and Xho I restriction sites. […]
recorded_endpoint: IC50 (µM)
Numbers only; they are read as µM.

For this compound ( CN1c2c(nc(N)[nH]c2=O)NC[C@@H]1CNc1ccc(C(=O)N[C@@H](CCC(=O)O)C(=O)O)cc1 ), measured IC50 is 3.65
